molecular target: Alkaline phosphatase, placental type (Homo sapiens); test: PLAP enzyme activators, biochemical, luminescence, HTS (AID 696); conditions: purified PLAP enzyme, luminescent substrate read-out
This listing pairs compounds with measured EC50.

compound="Cc1ccc(C2CC(c3ccc(Cl)cc3)=NNC2=O)cc1 (stereo unspecified)" system_under_test="Alkaline phosphatase, placental type (Homo sapiens)" value="0.203 µM"
compound=O=C(Cn1c(=O)n(-c2ccccc2)c(=O)c2sccc21)N1CCCC1 system_under_test="Alkaline phosphatase, placental type (Homo sapiens)" value="2.65 µM"
compound=Cc1ccc(/C=N/NC(=O)c2c[nH]c3ccccc23)o1 system_under_test="Alkaline phosphatase, placental type (Homo sapiens)" value="59.2 µM"

Quick one: EC50 of CCOc1ccc(CNC(=S)N/N=C\c2ccc([N+](=O)[O-])cc2)cc1 ?
10.9 µM

Quick one: EC50 of O=C1Nc2ccc(Br)cc2/C1=N/N=C/C1=C(N2CCOCC2)C(=C\c2ccccc2)/CC1 ?
38.4 µM

Quick one: EC50 of CCCn1c(C(O)c2ccc3c(c2)OCO3)nc2ccccc21 (stereo unspecified) ?
17.7 µM

###

This listing pairs compounds with measured pEC50.
molecular target: Alkaline phosphatase, placental type (Homo sapiens) (UniProt P05187); assay: PLAP enzyme activators, biochemical, luminescence, HTS (AID 696); conditions: purified PLAP enzyme, luminescent substrate read-out
Sequence (P05187 whole entry, looked up): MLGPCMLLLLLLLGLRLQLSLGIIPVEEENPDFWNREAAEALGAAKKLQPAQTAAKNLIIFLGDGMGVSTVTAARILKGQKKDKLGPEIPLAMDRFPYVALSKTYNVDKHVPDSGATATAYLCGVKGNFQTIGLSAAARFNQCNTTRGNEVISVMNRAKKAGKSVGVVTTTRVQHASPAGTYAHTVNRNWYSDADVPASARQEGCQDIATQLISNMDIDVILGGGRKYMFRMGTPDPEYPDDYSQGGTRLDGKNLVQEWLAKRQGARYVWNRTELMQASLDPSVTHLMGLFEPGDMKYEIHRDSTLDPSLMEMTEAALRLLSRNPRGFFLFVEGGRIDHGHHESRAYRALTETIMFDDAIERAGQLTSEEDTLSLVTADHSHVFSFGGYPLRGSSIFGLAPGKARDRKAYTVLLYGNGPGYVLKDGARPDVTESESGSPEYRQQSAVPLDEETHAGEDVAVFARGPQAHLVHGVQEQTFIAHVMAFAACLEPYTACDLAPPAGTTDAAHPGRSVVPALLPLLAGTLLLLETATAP
API: returns pEC50 as number; meaning -log10 of concentration in mol/L.

compound=O=C(Oc1ccc2c(=O)c(Oc3ccc4ccccc4c3)coc2c1)c1cncc(Br)c1 system_under_test="Alkaline phosphatase, placental type (Homo sapiens) (UniProt P05187)" value=4.13
compound=Cc1cc(Nc2ccc(Cl)cc2)n(-c2cccc(Cl)c2)n1 system_under_test="Alkaline phosphatase, placental type (Homo sapiens) (UniProt P05187)" value=4.29
compound=CCC(=O)Nc1ccccc1C(=O)OCC(=O)c1ccccc1 system_under_test="Alkaline phosphatase, placental type (Homo sapiens) (UniProt P05187)" value=4.41
compound=O=C(Nc1ccccc1)NC1(C(=O)N2CCN(C(=O)c3ccco3)CC2)CCCCC1 system_under_test="Alkaline phosphatase, placental type (Homo sapiens) (UniProt P05187)" value=4.45
compound=CCn1c(SCC(=O)c2ccc(O)c(O)c2)nnc1-c1ccccc1 system_under_test="Alkaline phosphatase, placental type (Homo sapiens) (UniProt P05187)" value=4.10

Now for the compound whose pEC50 we want.
What value of pEC50 on Alkaline phosphatase, placental type (Homo sapiens) (UniProt P05187) does N#CC(c1ccc(F)cc1)c1ccc(C(=O)c2ccccc2)cc1 (stereo unspecified) have?
5.10

###

molecular target: Alkaline phosphatase, placental type (Homo sapiens); assay: PLAP enzyme activators, biochemical, luminescence, HTS (AID 696); details: purified PLAP enzyme, luminescent substrate read-out
test_readout: EC50

Quick one: EC50 of CCCn1c(CNc2ccc(Br)cc2)nc2ccccc21 ?
48.5 µM

Quick one: EC50 of Cc1cccc(N2C(=O)NC(=O)/C(=C\c3cnn(-c4ccccc4)c3)C2=O)c1 ?
1.09 µM

Quick one: EC50 of O=P(/C(=N/O)N1CCCCC1)(N1CCOCC1)N1CCOCC1 ?
54.5 µM

Quick one: EC50 of CC1CC(C)CN(CC(C)(C)NS(=O)(=O)c2ccc(Cl)cc2)C1 (stereo unspecified) ?
24.8 µM

Quick one: EC50 of c1ccc(Nc2cccc(Nc3ccccc3)n2)cc1 ?
37 µM

Quick one: EC50 of COc1cccc(NC(=O)c2nnn(CCc3ccccc3)c2N)c1 ?
82.8 µM

Every entry's value here was drawn from PubChem BioAssay AID696.
